target: DRB4_0101 (Homo sapiens, UniProt P01903+P13762, G164S); assay: Competitive MHC class II binding assay, DRB4_0101
No end group written: not given here.
endpoint: IC50

Sample records with IC50:
query_sequence	IC50
ESAYLAYRNQSLDLAE [pep-009]	< 1000 nM
LVGDNGVLASAIATHAKIRD [pep-110]	< 1000 nM

Lab note: next sequence to report on.
The recorded IC50 for HAVNIVGYSNAQGVDYWIVR [pep-058] is < 1000 nM
